# Tested on: SF-539 CNS
# PROTOCOL_DESCRIPTION: NCI-60 one-dose screen, 48 h
# TEST_SETTINGS: 10 µM unless noted
# Method: Cells are grown in 96 well plates and exposed to the test compound for 48 hours. Compounds are tested at a single concentration, which is 10^-5 M for most compounds. The reported endpoint is percent growth (GI% or GIPRCNT), where numbers from 0 - 100% represent growth inhibition, and numbers from -100% - 0 represent cell death. For example, a value of 40 represents 60% growth inhibition. A value of 0 means no net growth occurred over the course of the experiment. […]
The panel holds about 83,000 compounds, 20% with a hit somewhere; the sample as a whole holds those more often. The source made the active and inactive calls. How the source made its calls: active means growth percent below 10; inactive means the rest.
// allowed return values: active, inactive

Solved entries:
>>> category_label("CCCCCCCC(=O)Nc1nc2[nH]c(CN3CCN(Cc4cccc(I)c4)CC3)c(CN3CCN(Cc4cccc(I)c4)CC3)c2c(=O)[nH]1")
"active"
>>> category_label("CN1CCN(c2ccc3nc(-c4cc(C(C)(C)C)c(O)c(C(C)(C)C)c4)[nH]c3c2)CC1")
"inactive"

Lookup: Could you check what this test reported for COc1ccc(C2CC(n3nnnc3-c3ccccc3)=NN2)cc1 (stereo not given) ?
Found: inactive

Lookup: Could you check what this test reported for CCN(CC)CCSCCCNc1c(C)cnc2cc(Cl)ccc12 ?
Found: inactive

Lookup: Could you check what this test reported for CCCCN(CCCC)CCc1c(C)cc(C)c(CCN(CCCC)CCCC)c1O ?
Found: inactive

Lookup: Could you check what this test reported for CC1(C)NCCC[C@]2(C)[C@H]3CC=C4[C@@H]5C[C@@](C)(CO)CC[C@]5(C)CC[C@@]4(C)[C@]3(C)CC[C@@H]12 ?
Found: inactive

Lookup: Could you check what this test reported for S=c1[nH]cccc1-c1nnc2n1Nc1nc3ccccc3cc1CS2 ?
Found: inactive

Lookup: Could you check what this test reported for COc1cc(NCC(C)(O)CN(CC(C)C)CC(C)C)c2nc(C)ccc2c1 (stereo not given) ?
Found: inactive

Lookup: Could you check what this test reported for CCNC(=S)NNC(=O)c1cc2ccc1CCc1ccc(cc1)CC2 ?
Found: inactive

Lookup: Could you check what this test reported for C=C(C)[C@@H]1CC[C@]2(C(=O)NCCCN(CCC#N)CCC#N)CC[C@]3(C)[C@H](CC[C@@H]4[C@@]5(C)CCC(=O)C(C)(C)[C@@H]5CC[C@]43C)[C@@H]12 ?
Found: inactive

Lookup: Could you check what this test reported for CCc1nc(C)cn1C(=O)OCc1nc2nc(Cl)nc(N3CCOCC3)c2[nH]1 ?
Found: active

Lookup: Could you check what this test reported for Cc1ccc(C2CC(c3cccc(Nc4ccncc4)c3)=NN2c2ccccc2)cc1 (stereo not given) ?
Found: active

Lookup: Could you check what this test reported for Clc1cc(Cl)cc(N2N=C(c3cccc(Nc4ccncc4)c3)CC2c2ccc(Br)cc2)c1 (stereo not given) ?
Found: inactive

Lookup: Could you check what this test reported for S=c1[nH]cccc1-c1nnc2n1Nc1nc3ccc(Cl)cc3cc1CS2 ?
Found: inactive

Lookup: Could you check what this test reported for COc1ccccc1N1CCN(C(=O)c2ccc3nc(NC(=O)c4ccc(NCCc5ccccc5)c([N+](=O)[O-])c4)sc3c2)CC1 ?
Found: inactive

---

# System: CAKI-1 renal
# PROTOCOL_DESCRIPTION: NCI-60 one-dose screen, 48 h
# TEST_SETTINGS: 10 µM unless noted
The panel holds about 83,000 compounds, 20% with a hit somewhere; the sample as a whole holds those more often. Active and inactive are the calls of the source. How the source made its calls: active means growth percent below 10; inactive means the rest.
// allowed return values: label 1 = active, label 0 = inactive

Solved entries:
>>> category_label("C#CC(=O)Nc1cccc2c1cc(C)n2-c1nc2c(c(NCc3ccccc3)n1)CCCC2")
"label 1"
>>> category_label("C[C@H]1[C@H](C)CC[C@]2(CO)CC[C@]3(C)C(=CC[C@@H]4[C@@]5(C)CCCNC(C)(C)[C@@H]5CC[C@]43C)[C@H]12")
"label 0"
>>> category_label("CC[C@@]12C=CCN3CC[C@]4(c5cc(NC(=O)COc6cc(OCC(=O)Nc7cc8c(cc7OC)N(C)[C@H]7[C@@](O)(C(=O)OC)[C@H](OC(C)=O)[C@]9(CC)C=CCN%10CC[C@]87[C@@H]%109)cc7oc(-c8ccccc8)cc(=O)c67)c(OC)cc5N(C)[C@@H]4[C@](O)(C(=O)OC)[C@H]1OC(C)=O)[C@H]32")
"label 0"
>>> category_label("C#CCn1cc(C=C2C(=O)NC(=S)NC2=O)c2cc(Cl)ccc21")
"label 1"
>>> category_label("O=C(O)c1cn(C2CC2)c2cc(N3CCN(C(=O)C[n+]4cccc5ccccc54)CC3)c(F)cc2c1=O")
"label 0"

Lookup: Could you check what this test reported for COc1ccc(NC(=O)c2sc3nc(C)c(C(=O)c4ccc(OC)cc4)cc3c2N)cc1 ?
Found: label 0

Lookup: Could you check what this test reported for O=S(=O)(NCCCNc1nccc(-c2c(-c3ccccc3)nc3occn23)n1)c1ccc(Cl)cc1 ?
Found: label 0

---

# Test system: SK-OV-3 ovarian
# PROTOCOL_DESCRIPTION: NCI-60 one-dose screen, 48 h (100 = growth as untreated, 0 = no growth, -100 = all killed)
# TEST_SETTINGS: 10 µM unless noted
About 83,000 compounds went through this panel and 20% of them were active in at least one assay; those are over-represented in the sample as a whole.
I'd appreciate it if you marked entries rule met when growth is lower than 70% and rule not met when it is not.

>>> category_label("O=S(=O)(c1cccc(NC2=Nc3cccc4cccc2c34)c1)N1CCCC1")
"rule not met"
>>> category_label("CN1CCN(CCCNc2nccc(-c3c(-c4ccc(F)c(O)c4)nc4sccn34)n2)S1(=O)=O")
"rule not met"
>>> category_label("COc1ccc(NC(=O)c2sc3nc(C)c(C(=O)c4ccc(OC)cc4)cc3c2N)cc1")
"rule met"
>>> category_label("C[C@]12C[C@H]1CC[C@]1(C)[C@@H]2CC[C@@]23C[C@H](CC[C@H]21)[C@@](O)(CO)C3")
"rule not met"
>>> category_label("CC1(C)[C@H](O)CC[C@]2(C)[C@@H]1CC[C@@]13C[C@@H](CC[C@H]12)[C@@](O)(CO)C3")
"rule not met"

Lookup: Please determine if c1ccc(N2N=C(c3cccc(Nc4ccncc4)c3)CC2c2ccc3c(c2)OCO3)cc1 (stereo not drawn) is below 70% in terms of growth.
Found: rule met

Lookup: Please determine if CN1CCN(c2ccc3nc(-c4cc(C(C)(C)C)c(O)c(C(C)(C)C)c4)[nH]c3c2)CC1 is below 70% in terms of growth.
Found: rule not met

Lookup: Please determine if CC[C@@]12C=CCN3CC[C@]4(c5cc(NC(=O)COc6cc(OCC(=O)Nc7cc8c(cc7OC)N(C)[C@H]7[C@@](O)(C(=O)OC)[C@H](OC(C)=O)[C@]9(CC)C=CCN%10CC[C@]87[C@@H]%109)cc7oc(-c8ccccc8)cc(=O)c67)c(OC)cc5N(C)[C@@H]4[C@](O)(C(=O)OC)[C@H]1OC(C)=O)[C@H]32 is below 70% in terms of growth.
Found: rule met

Lookup: Please determine if CCNC(=S)NNC(=O)c1cc2ccc1CCc1ccc(cc1)CC2 is below 70% in terms of growth.
Found: rule not met

Lookup: Please determine if CC(=O)c1c(C)[nH]c(-c2nc3ccc(N4CCN(C)CC4)cc3[nH]2)c1-c1ccccc1 is below 70% in terms of growth.
Found: rule met

Lookup: Please determine if CCN(CC)CCOC(COc1cc(C)cc(C)c1)COc1cc(C)cc(C)c1 is below 70% in terms of growth.
Found: rule met

Lookup: Please determine if COc1ccc2c(/C=C3/C(=O)NC(=S)NC3C)cc(=O)oc2c1 (stereo not drawn) is below 70% in terms of growth.
Found: rule not met

Lookup: Please determine if COc1ccc(-n2cc(-c3cc(OC)c(OC)c(OC)c3)n(C(C)=O)c2=O)cc1 is below 70% in terms of growth.
Found: rule not met

Lookup: Please determine if CCOC(=O)c1ccc(Nc2ccnc(SCC(=O)c3ccc(C#N)cc3)n2)cc1 is below 70% in terms of growth.
Found: rule not met

Lookup: Please determine if Cc1ccc(-c2c(Br)c(OC(=O)CO[C@@H]3C[C@H](C)CC[C@H]3C(C)C)c(-c3ccc(C)cc3C)c(Br)c2OC(=O)CO[C@H]2C[C@@H](C)CC[C@@H]2C(C)C)c(C)c1 is below 70% in terms of growth.
Found: rule not met

---

# Tested on: MDA-MB-231 breast
# PROTOCOL_DESCRIPTION: NCI-60 one-dose screen, 48 h (100 = growth as untreated, 0 = no growth, -100 = all killed)
# TEST_SETTINGS: 10 µM unless noted
The panel holds about 83,000 compounds, 20% with a hit somewhere; the sample as a whole holds those more often.
MEASURE: growth (%)
One number for each entry, in %.

Example entries and their recorded answers appear below.
>>> reported_value("CCCCc1ccc(Nc2nnc(SCC(=O)NC(=O)NCC)s2)cc1")
88.1
>>> reported_value("O=C(CSc1nc2sc3c(c2c(=O)n1Cc1ccccc1)CCCC3)N1CCN(c2ccccc2)CC1")
101
>>> reported_value("CN(C)Cc1c(-c2ccccc2)[nH]c2ccccc12")
102
>>> reported_value("COc1ccccc1Nc1cc(O)c2c(=O)cc(-c3ccccc3)oc2c1")
39.2
>>> reported_value("NC(=O)CN1CCN(c2ccccc2Cl)CC1")
102

Would you mind giving growth for every molecule in the list below?
1. COc1ccc(-c2nc(SC)nc(N3CCOCC3)c2C#N)cc1
2. CC(C)(C)OC(=O)N1C/C(=C\c2ccoc2)C(=O)/C(=C/c2ccoc2)C1
3. O=C(OC(OC(=O)c1cc(Cl)cc(Cl)c1)c1cccc2ccccc12)c1ccccc1 (stereo unspecified)
4. CN1CCCC1=Nc1ccccc1
5. COc1ccc(-n2cc(-c3cc(OC)c(OC)c(OC)c3)n(C(C)=O)c2=O)cc1
6. CCCN=C(N)c1ccc(NC(=O)c2ccc(C(=O)Nc3ccc(C(N)=NCCC)cc3)cc2)cc1

Found:
1: 92.2; 2: 109; 3: 95.5; 4: 109; 5: 86.4; 6: 96.6
